# test.description: Half life in mouse at 10 mg/kg, iv
# Assay type: ADME, organism-based
# run.conditions: in vivo
reported.metric: half-life (h)
Only the number, expressed in h, is required.

Inquiry: For the compound O=C1CCC(N2Cc3c(C#CC4CCN(C(=O)[C@H]5CC[C@H](NC(=O)[C@@H]6NC7(CCCCC7)[C@@]7(C(=O)Nc8cc(Cl)ccc87)[C@H]6c6cccc(Cl)c6F)CC5)CC4)cccc3C2=O)C(=O)N1 (stereo partly specified) , report half-life.
Reply text: 6.1

* * *

# test.description: AUC (0 to t) in dog at 2.5 mg/kg, iv
# Assay type: ADME, organism-based, Canis lupus familiaris
# run.conditions: in vivo
reported.metric: AUC(0-t) (ng·h/mL)
Numeric answer only, unit ng·h/mL assumed.

Inquiry: // Input: O=C1CCC(N2Cc3c(C#CC4CCN(C(=O)[C@H]5CC[C@H](NC(=O)[C@@H]6NC7(CCCCC7)[C@@]7(C(=O)Nc8cc(Cl)ccc87)[C@H]6c6cccc(Cl)c6F)CC5)CC4)cccc3C2=O)C(=O)N1 (stereo partly specified) . Output its AUC(0-t) only.
Reply text: 5500

* * *

# Test system: MOLM-13
# test.description: Antiproliferative activity against human MOLM-13 cells assessed as inhibition of cell growth measured after 4 days by WST-8 assay
# Type: functional, cell-based
# run.conditions: MOLM-13, 96 h
Items are presented alongside their recorded pIC50.
Just the number, please; pIC50 means minus log10 of the concentration in mol/L.

O=C1CCC(N2Cc3c(C#CC4CCN(C(=O)[C@H]5CC[C@H](NC(=O)[C@@H]6NC7(CCCCC7)[C@@]7(C(=O)Nc8cc(Cl)ccc87)[C@H]6c6cccc(Cl)c6F)CC5)CC4)cccc3C2=O)C(=O)N1 (some centres not stated) | 8.24

Attention now shifts to the item below.
Inquiry: Please look at this compound and report its pIC50: O=C1CCC(N2Cc3c(C#CC4CCN(C(=O)c5ccc(NC(=O)[C@@H]6NC7(CCCCC7)[C@@]7(C(=O)Nc8cc(Cl)ccc87)[C@H]6c6cccc(Cl)c6F)cc5)CC4)cccc3C2=O)C(=O)N1 (some centres not stated)
Reply text: 7.43

* * *

# test.description: Clearance in dog at 2.5 mg/kg, iv
# Format: ADME, organism-based, Canis lupus familiaris
# run.conditions: in vivo
reported.metric: clearance (mL/min/kg)
Kindly provide the numeric value in mL/min/kg only, without the unit symbol.

Inquiry: Give recorded clearance. O=C1CCC(N2Cc3c(C#CC4CCN(C(=O)[C@H]5CC[C@H](NC(=O)[C@@H]6NC7(CCCCC7)[C@@]7(C(=O)Nc8cc(Cl)ccc87)[C@H]6c6cccc(Cl)c6F)CC5)CC4)cccc3C2=O)C(=O)N1 (stereo partly specified)
Reply text: 7.4

* * *

Listing: IC50 of selected compounds
# System: OCI-AML-3
# test.description: Antiproliferative activity against human OCI-AML-3 cells assessed as inhibition of cell growth measured after 4 days by WST-8 assay
# Format: functional, cell-based
# run.conditions: OCI-AML-3, 96 h
Write the value in µM as a bare number.

O=C1CCC(N2Cc3c(C#CC4CCN(C(=O)[C@H]5CC[C@H](NC(=O)[C@@H]6NC7(CCCCC7)[C@@]7(C(=O)Nc8cc(Cl)ccc87)[C@H]6c6cccc(Cl)c6F)CC5)CC4)cccc3C2=O)C(=O)N1 (some centres not stated) | 0.212

Turning now to a further compound:
Inquiry: Retrieve IC50 measured for O=C1CCC(N2Cc3c(C#CC4CCN(C(=O)c5ccc(NC(=O)[C@@H]6NC7(CCCCC7)[C@@]7(C(=O)Nc8cc(Cl)ccc87)[C@H]6c6cccc(Cl)c6F)cc5)CC4)cccc3C2=O)C(=O)N1 (some centres not stated) and print it.
Reply text: 7.75
